EXPERIMENTAL TARGET: T1, HLA-A*0201 molecule on human T2 cells (human)
T1 construct: read out with anti-HLA-A2 antibody BB7.2-PE; also called HLA-A2
EXPERIMENT SUMMARY: T2 cells expressing HLA-A*0201, anti-HLA-A2-PE, FACS
OBSERVABLE: mean relative fluorescence intensity at 50 µM peptide

Take a look at these entries with their results.
{"BINDER": "FLVEDETVI [EZH2-B]", "MEASURED": "82.6 % of HIV peptide"}
{"BINDER": "LTLGEFLKL [BIRC5-H]", "MEASURED": "18.9 % of HIV peptide"}
{"BINDER": "RLSSYLVEI [FOXM1-B]", "MEASURED": "21.3 % of HIV peptide"}

# evaluate next
Give its mean relative fluorescence intensity at 50 µM peptide value. Item: YLLSAALTI [CHI3L1B3]
108 % of HIV peptide
